Biological target: T1, human SLC34A2 (human, UniProt O95436 1-690)
T1 sequence (looked up): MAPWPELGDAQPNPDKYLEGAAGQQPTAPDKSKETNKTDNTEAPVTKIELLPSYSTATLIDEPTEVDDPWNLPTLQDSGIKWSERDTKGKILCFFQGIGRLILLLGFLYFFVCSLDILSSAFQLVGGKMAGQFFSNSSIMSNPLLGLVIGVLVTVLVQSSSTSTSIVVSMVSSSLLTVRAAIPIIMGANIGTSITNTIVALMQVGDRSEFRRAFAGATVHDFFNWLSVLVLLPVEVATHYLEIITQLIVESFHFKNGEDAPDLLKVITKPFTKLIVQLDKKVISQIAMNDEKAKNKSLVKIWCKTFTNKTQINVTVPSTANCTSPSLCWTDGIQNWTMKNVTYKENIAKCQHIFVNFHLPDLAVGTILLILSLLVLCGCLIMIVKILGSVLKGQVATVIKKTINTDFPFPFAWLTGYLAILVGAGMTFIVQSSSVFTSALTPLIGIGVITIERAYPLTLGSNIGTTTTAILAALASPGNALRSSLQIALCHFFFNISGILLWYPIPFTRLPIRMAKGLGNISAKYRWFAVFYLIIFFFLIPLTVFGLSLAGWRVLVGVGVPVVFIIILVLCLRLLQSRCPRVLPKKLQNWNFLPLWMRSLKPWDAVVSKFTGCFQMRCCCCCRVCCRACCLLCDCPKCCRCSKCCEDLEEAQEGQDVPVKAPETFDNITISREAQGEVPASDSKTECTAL
Assay: cell-based or functional assay
assayEndpoint: ADCC reporter EC50
Report as: number unit

Consider the following illustrative entries.
30H9B8F9.p1.z9 hIgG1 (antibody, V domains shown, humanized hIgG1) VH: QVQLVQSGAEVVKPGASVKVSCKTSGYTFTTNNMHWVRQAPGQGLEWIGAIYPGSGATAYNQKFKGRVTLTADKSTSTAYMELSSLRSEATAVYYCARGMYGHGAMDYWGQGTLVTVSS VL: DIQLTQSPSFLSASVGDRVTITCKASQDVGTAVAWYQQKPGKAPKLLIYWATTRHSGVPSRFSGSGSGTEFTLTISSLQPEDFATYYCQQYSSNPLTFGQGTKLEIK ... 1.53 nM
62G10E4G8.p3.z15 hIgG1 (antibody, V domains shown, humanized hIgG1) VH: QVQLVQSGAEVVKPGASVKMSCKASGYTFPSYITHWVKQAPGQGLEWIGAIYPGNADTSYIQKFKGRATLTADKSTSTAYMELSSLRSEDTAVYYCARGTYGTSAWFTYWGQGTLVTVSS VL: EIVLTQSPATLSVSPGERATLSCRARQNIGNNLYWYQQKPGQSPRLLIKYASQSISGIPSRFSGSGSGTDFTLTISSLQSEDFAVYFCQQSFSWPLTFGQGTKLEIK ... 5.39 nM
91C9F1.p1 hIgG1 (antibody, V domains shown, PTM-derisked chimeric, hIgG1; also called 91C9F1.pl hIgG1) VH: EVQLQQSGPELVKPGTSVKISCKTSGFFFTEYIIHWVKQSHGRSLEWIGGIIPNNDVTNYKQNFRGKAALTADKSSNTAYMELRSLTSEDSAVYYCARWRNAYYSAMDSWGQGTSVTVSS VL: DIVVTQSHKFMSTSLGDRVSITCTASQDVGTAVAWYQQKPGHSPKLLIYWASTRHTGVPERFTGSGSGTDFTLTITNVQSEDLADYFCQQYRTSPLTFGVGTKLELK ... 3.31 nM
62G10E4G8 VH_P3/VL hIgG1 (antibody, V domains shown, PTM-derisked chimeric, hIgG1; that P3 is the NA version follows from the humanized .p3 chains; also called 62G10E4G8.p3 hIgG1) VH: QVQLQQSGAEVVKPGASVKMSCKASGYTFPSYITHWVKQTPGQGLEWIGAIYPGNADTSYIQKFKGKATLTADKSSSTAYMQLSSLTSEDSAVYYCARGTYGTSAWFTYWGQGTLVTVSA VL: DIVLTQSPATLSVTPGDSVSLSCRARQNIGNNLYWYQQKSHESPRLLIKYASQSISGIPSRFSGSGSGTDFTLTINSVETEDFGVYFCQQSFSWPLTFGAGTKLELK ... 4.23 nM

Query binder follows.
## Input What value of ADCC reporter EC50 has been recorded for this entry: 91C9F1.p1.z7 hIgG1 (antibody, V domains shown, humanized hIgG1) VH: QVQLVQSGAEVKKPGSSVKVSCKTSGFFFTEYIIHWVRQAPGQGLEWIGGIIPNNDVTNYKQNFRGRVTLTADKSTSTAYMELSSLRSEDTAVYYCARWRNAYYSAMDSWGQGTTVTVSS VL: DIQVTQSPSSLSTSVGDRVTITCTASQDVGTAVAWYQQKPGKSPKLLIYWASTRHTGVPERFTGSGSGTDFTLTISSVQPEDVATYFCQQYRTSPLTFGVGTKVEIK
## Output 2.12 nM
